These records show pIC50 for cMET (Homo sapiens, UniProt P08581).
pIC50: −log10 of the molar value.

Answered examples (3):
[
  {
    "Structure": "Nc1nccc(Oc2ccc(NC(=O)c3cnn(-c4ccccc4F)c3C(F)(F)F)cc2F)c1Cl",
    "pIC50": "5.30 to 6.30"
  },
  {
    "Structure": "Nc1nccc(Oc2ccc(NC(=O)c3cnn(-c4ccccc4)c3C(F)(F)F)cc2F)c1I",
    "pIC50": "< 5.30"
  },
  {
    "Structure": "Nc1nccc(Oc2ccc(NC(=O)c3cnn(-c4ccccc4)c3-c3ccccc3)cc2F)c1Cl",
    "pIC50": "5.30 to 6.30"
  }
]

Field: next molecule
Bench note: what pIC50 did Nc1nccc(Oc2ccc(NC(=O)c3ncc(-c4ccccc4)s3)cc2F)c1Cl show? < 5.30
